system: CCRF-CEM; test: Antiproliferative activity against human CEM cells after 72 hrs by Coulter counter method; type: functional, cell-based
measurement name: pIC50
# pIC50 = -log10(concentration in molar units)

chemical structure: C#C[C@@]1(O)[C@@H](CO)O[C@@H](n2cc(Br)c3c(N)ncnc32)[C@@H]1O
pIC50: 7.52

Enquiry: Any idea what pIC50 was measured for C#Cc1cn([C@@H]2O[C@H](CO)[C@](O)(C#C)[C@H]2O)c2ncnc(N)c12 ?
Return: 4.20

Enquiry: Any idea what pIC50 was measured for C#C[C@@]1(O)[C@@H](CO)O[C@@H](n2cc(F)c3c(N)ncnc32)[C@@H]1O ?
Return: 6.80

Enquiry: Any idea what pIC50 was measured for C#C[C@@]1(O)[C@@H](CO)O[C@@H](n2cc(C(F)(F)F)c3c(N)ncnc32)[C@@H]1O ?
Return: 6.44

Enquiry: Any idea what pIC50 was measured for C#C[C@@]1(O)[C@@H](CO)O[C@@H](n2cc(I)c3c(Cl)ccnc32)[C@@H]1O ?
Return: 6.59

Enquiry: Any idea what pIC50 was measured for C#C[C@@]1(O)[C@@H](CO)O[C@@H](n2cnc3c(-c4ccc(C)cc4)ncnc32)[C@@H]1O ?
Return: 3.81
